Values were extracted from paper PMC8154581.

# method.notes: Pharmacokinetic studies in Balb/c mice
# assay.conditions: male, Balb/c, mouse, in vivo, iv, 5 mg/kg
readout.type: AUC(0-t) at 24 h
I'd appreciate it if you wrote the number followed by its unit.

compound	readout.type	assay.value
CCOC(=O)NC(=O)c1ccsc1NC(=O)c1ccc(C(=O)N2CCCCC2)c(F)c1 [Compound 24f]	AUC(0-t) at 24 h	0.183 µg·h/mL

Per the record, COC(=O)NC(=O)c1ccsc1NC(=O)c1ccc(C(=O)N2CCCCC2)cc1 [Compound 25a] has AUC(0-t) at 24 h of 0.83 µg·h/mL

The measured AUC(0-t) at 24 h associated with CCOC(=O)NC(=O)c1ccsc1NC(=O)c1nc2ccccc2s1 [TCA1, reference compound] reads 7.91 µg·h/mL
